Listed binders paired with reported MFI
biological target: human DLL3 endogenously expressed on SHP77 and NCI-H82 cells (human) (UniProt Q9NYJ7); test: FACS SHP77 cells, 0.8 nM
Sequence (Q9NYJ7 27-618): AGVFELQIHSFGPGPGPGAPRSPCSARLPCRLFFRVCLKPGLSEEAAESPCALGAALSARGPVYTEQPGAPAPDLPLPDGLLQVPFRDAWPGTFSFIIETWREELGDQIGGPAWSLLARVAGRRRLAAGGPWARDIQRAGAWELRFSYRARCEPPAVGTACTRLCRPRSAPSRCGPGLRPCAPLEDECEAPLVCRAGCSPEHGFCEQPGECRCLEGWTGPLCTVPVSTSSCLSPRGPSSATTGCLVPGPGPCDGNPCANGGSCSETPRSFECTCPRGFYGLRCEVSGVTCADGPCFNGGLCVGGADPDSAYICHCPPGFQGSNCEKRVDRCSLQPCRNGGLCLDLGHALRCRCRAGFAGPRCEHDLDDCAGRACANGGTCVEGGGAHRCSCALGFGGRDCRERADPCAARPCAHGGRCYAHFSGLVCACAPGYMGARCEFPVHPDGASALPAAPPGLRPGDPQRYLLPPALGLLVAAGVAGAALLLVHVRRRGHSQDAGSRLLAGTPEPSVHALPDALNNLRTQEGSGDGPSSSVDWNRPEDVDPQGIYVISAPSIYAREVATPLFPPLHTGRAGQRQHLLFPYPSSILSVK
The reply should contain only the number, in MFI.

Reference set (4 entries):
mab006 scFv-hFc (Fc fusion, not shown: small tags and cut ends; a dimerising Fc or GST) scFv (part 1 of 2): DVQITQSPSYLAASPGETITINCRATKSISKYLAWYQEKPGKTNKLLIFSGSTLQSGIPSRFRGSGSGTDFTLTISSLEPEDFAMYYCQQHHEYPYTFGGGTKLEIK scFv (part 2 of 2): QVQLQQPGAELVRPGTSVKLSCKASGYTFTSYWMHWVRQRPGQGLEWIGVIDPSDSLANYNQEFKGKATLTVDTSSSTAYMQLSSLTSEDSAVYYCARDSTVVAPMDYWGQGTSVTVSS: 643
mab008 scFv-hFc (Fc fusion, not shown: small tags and cut ends; a dimerising Fc or GST) scFv (part 1 of 2): DIVMTQSQKFMSTSVGDRVSITCKASQNVGTAVAWYQQKPGQSPKLLIFSASIRYTGVPDRFTGSGSGTDFTLTISNMQSEDLADYFCQQYSSSPYTFGGGTKLEIK scFv (part 2 of 2): EVQLQQSGPVLVKPGASVKMSCKASGYTFTDYYMNWVKRSHGKSLEWIGIINPYNGGTSYNQKFRGKATLTVDKSSNTAYMELNSLTSEDSAVYYCSRYDYDYDVEGAMDYWGQGTSVTVSS: 208
mab014 scFv-hFc (Fc fusion, not shown: small tags and cut ends; a dimerising Fc or GST) scFv (part 1 of 2): DIQMTQSSSSFSVSLGDRVTITCKASEDIYNRLAWYQQKPGNTPRLLISGATSLETGVPSRFSGSGSGKDFTLSITSLQTEDVATYYCQQYWSLPWTFGGGTKLEIK scFv (part 2 of 2): EVQLHQSGPELVKPGTSVKISCKASGYTFTDYYMNWVKQSHGKSLEWIGDINPNHGDTGYNQKFTGKATLTVDKSSSTAYMELRSLTSEDSAVYYCARNFFYYGTTYGWYFDVWGTGTTVTVSS: 461
mab007 scFv-hFc (Fc fusion, not shown: small tags and cut ends; a dimerising Fc or GST) scFv (part 1 of 2): DVQITQSPSYLAASPGETITINCRASTSISKYLAWYQERPGKTNKLLIYSGSTLQSGIPSRFRGSGSGTDFTLTISSLEPEDFAMYYCQQHHVYPYTFGGGTKLEIK scFv (part 2 of 2): QVQLQQPGAELVRPGTSVKLSCKASGYTFTSYWMHWVKQRPGQGLEWIGVIDPSDSLANYNQEFKGKATLTVDTSSSTAYMQLSSLTSEDSAVYYCARDSTVVAPMDYWGQGTSVTVSS: 525

Query: # get_value(readout='MFI', item= mab010 scFv-hFc (Fc fusion, not shown: small tags and cut ends; a dimerising Fc or GST) scFv (part 1 of 2): DIQMTQSPASLSVSVGETVTITCRASENINSNLAWYQQKQGKSPQLLVYAATNLADGVPSRFSGSGSGTQFSLKISGLQSEDFGSYYCQHFWGLPWTFGGGTKLEIR scFv (part 2 of 2): QVQLQQSGAELARPGASMKLSCKASGYTFTSYGISWVKQITGQGLEWIGEIFPRSGNTYDNENFRGKATLTADKSSSTAYLEVRSLTSEDSAVYFCARTTVFAPYYFDYWGQGTTLTVSS )
Result: 619
